- Organism: Rattus norvegicus
- assay info: Ratio of heart rate reduction to mean arterial blood pressure reduction
- Assay type: functional
measured quantity: Selectivity

Problem: Respond only with Selectivity recorded for `COc1cc2c(cc1OC)CC(=O)N(CCCN(C)CCCCCc1cccs1)CC2`
Solution: 4.4

Problem: Please list Selectivity recorded for the compound `COc1cc2c(cc1OC)CC(=O)N(CCCN(C)CCc1coc3cccc(OC)c13)CC2`
Solution: 3.9

Problem: Give Selectivity for `COc1cc2c(cc1OC)CC(=O)N(CCCN(C)CCc1cccnc1)CC2`
Solution: 1.1

Problem: Report Selectivity, nothing else, for this compound: `COc1cc2c(cc1OC)CC(=O)N(CCCN(C)CCc1csc3cccc(OC)c13)CC2`
Solution: 1.6

Problem: Item `COc1cc2c(cc1OC)CC(=O)N(CCCN(C)CCc1csc3c1CCCC3)CC2` : provide Selectivity
Solution: 1.6
